target-or-test-system: Cholesteryl ester transfer protein (Homo sapiens)
Sequence (P11597 whole entry): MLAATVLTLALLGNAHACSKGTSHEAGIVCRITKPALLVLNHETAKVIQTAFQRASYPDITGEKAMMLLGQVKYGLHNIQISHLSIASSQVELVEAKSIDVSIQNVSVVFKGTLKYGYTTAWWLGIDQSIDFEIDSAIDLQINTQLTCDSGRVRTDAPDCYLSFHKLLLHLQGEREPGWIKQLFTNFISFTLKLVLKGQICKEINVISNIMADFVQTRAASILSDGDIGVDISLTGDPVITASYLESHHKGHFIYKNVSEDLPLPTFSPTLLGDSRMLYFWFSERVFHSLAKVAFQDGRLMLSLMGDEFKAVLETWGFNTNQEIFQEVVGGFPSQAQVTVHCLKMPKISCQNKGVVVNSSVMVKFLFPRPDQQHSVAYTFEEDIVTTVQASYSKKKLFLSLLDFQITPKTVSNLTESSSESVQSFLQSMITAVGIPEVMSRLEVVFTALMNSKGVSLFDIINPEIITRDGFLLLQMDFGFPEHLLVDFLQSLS
assay-explanation: Inhibition of CETP assessed as cholesterol ester transfer after 4 hrs by microemulsion based fluorescence assay
quantity: pIC50
Please treat pIC50 as minus the base-10 logarithm of the molar concentration.

Here is how some compounds turned out for pIC50.
CC(C)c1c(C(=O)c2ccc(C(F)(F)F)cc2)c(C2CCCC2)nc2c1[C@@H](O)CC1(CCC1)C2 : 6.52
CCC(C)c1c(C(=O)c2ccc(C(F)(F)F)cc2)c(C2CCCC2)nc2c1[C@@H](O)CC(C)(C)C2 (some centres not stated) : 5.70
O=C(c1ccc(C(F)(F)F)cc1)c1c(C2CCCC2)nc2c(c1C1CCCC1)[C@@H](O)CC1(CCC1)C2 : 7.15
CC1(C)Cc2nc(C3CCCC3)c(C(=O)c3ccc(C(F)(F)F)cc3)c(C3CCN(C(=O)OCc4ccccc4)CC3)c2[C@@H](O)C1 : 6.30
CC(C)c1nc2c(c(C3CCCCC3)c1C(=O)c1ccc(C(F)(F)F)cc1)[C@@H](O)CC1(CCC1)C2 : 7.48

Kindly consider the entry below.
// query Entry under review: `CC(C)c1nc2c(c(-c3ccc(F)cc3)c1[C@@H](F)c1ccc(C(F)(F)F)cc1)[C@@H](O)CC1(CCC1)C2` . Reported pIC50?
// result 7.62
